tgt: T1, monoclonal antibody 3C4
T1 construct: also called mAb 3C4; 3C4 (3CY)
protocolDetails: SPR, inhibition of phagemid binding to 3C4 by 1 uM holoTC (competitor)
Positions of bridges follow the written chain, without caps; N, C: chain ends. No end group written: not given here.
Listing: Inhibition (%) of selected binders

Illustrative cases are given below, each with its answer.
CSFRYQWDMFRCS (disulfide 1-12 (inferred); also: displayed on phage (phagemid)) [phagemid CS1-11p (phage-displayed disulfide cyclized 13 mer peptide)] | 100%
CSGLYPWDYFMCS (disulfide 1-12 (inferred); also: displayed on phage (phagemid)) [phagemid CS1-29p (phage-displayed disulfide cyclized 13 mer peptide)] | 85%
CSGLYPWDMFRCS (disulfide 1-12 (inferred); also: displayed on phage (phagemid)) [phagemid CS1-9p (phage-displayed disulfide cyclized 13 mer peptide)] | 87%
CSFRYLWDQDRCS (disulfide 1-12 (inferred); also: displayed on phage (phagemid)) [phagemid CS1-6p (phage-displayed disulfide cyclized 13 mer peptide)] | 88%

Please examine the following record next.
I have this binder here, CSFFYSLCYCWCS (disulfide (positions not given here); also: four Cys, disulfide pairing not given here, also called CSI-31p) [phagemid CS1-31p (phage-displayed disulfide cyclized 13 mer peptide)] , and I need its recorded Inhibition (%).
88%
